Tested on: shattercane
Test: Greenhouse pre-emergence GR15/GR85 selectivity test
Type: in vivo
Conditions: Table XVI
Text: A good grade of top soil is placed in aluminum pans and compacted to a depth of three-eighths to one-half inch from the top of the pan. On the top of the soil is placed a number of seeds or vegetative propagules of various plant species. The soil required to level fill the pans after seeding or adding vegetative propagules is weighed into a pan. […]
compounds and their reported GR85 Rate
State the answer as a number, implicitly in Kg/Ha.

input: Consider the compound shown here: CCOCN(C(=O)CCl)c1c(CC)cccc1C(F)(F)F What is its recorded GR85 Rate?
output: 0.21

input: Please look up its GR85 Rate: CCCOCN(C(=O)CCl)c1c(CC)cccc1C(F)(F)F
output: 0.56

input: If you can, please state the reported GR85 Rate value of Cc1cccc(C(F)(F)F)c1N(COCC(C)C)C(=O)CCl .
output: 0.56

input: Entry CCCOCN(C(=O)CCl)c1c(C)cccc1C(F)(F)F : reported GR85 Rate = ?
output: 0.11

--- query ---
input: Item Cc1cccc(C(F)(F)F)c1N(COC(C)C)C(=O)CCl has what recorded GR85 Rate?
output: 0.51

====

selectivity factor (GR15/GR85) values for the molecules below.
system: Quackgrass; experiment: Greenhouse pre-emergence GR15/GR85 selectivity test; assay type: in vivo; details: quackgrass in corn, Table IV, Replicate #1
Answer as a number with no unit attached.

Here's what some known entries look like.
input: Look at this molecule and give its reported selectivity factor (GR15/GR85). CCOCCN(C(=O)CCl)c1ccccc1C(F)(F)F [B, reference compound]
output: 2

input: What value of selectivity factor (GR15/GR85) has been recorded for this entry: CCCOCN(C(=O)CCl)c1c(C)cccc1C(F)(F)F
output: 6.5

More entries:
input: Looking for the measured selectivity factor (GR15/GR85) of Cc1cccc(C(F)(F)F)c1N(COC(C)C)C(=O)CCl , can you help?
output: 5

input: Which value of selectivity factor (GR15/GR85) has been reported for CCOCN(C(=O)CCl)c1c(C)cccc1C(F)(F)F in the records?
output: 4

input: Name the reported selectivity factor (GR15/GR85) value associated with the molecule CC(C)OCN(C(=O)CCl)c1ccccc1C(F)(F)F
output: 12

====

system: wild proso millet; assay: Greenhouse pre-emergence GR15/GR85 selectivity test; format: in vivo, wild proso millet (panicum milicaeum); conditions: Table XVI
# GR85 Rate per entry
The response must be a number in Kg/Ha with no trailing unit.

input: Entry CCOCN(C(=O)CCl)c1c(CC)cccc1C(F)(F)F [Example 9] : reported GR85 Rate = ?
output: 0.56

input: Query: GR85 Rate; subject: CCCOCN(C(=O)CCl)c1c(C)cccc1C(F)(F)F [Example 3]
output: 0.27

input: Can you share its GR85 Rate? I mean this compound: Cc1cccc(C(F)(F)F)c1N(COCC(C)C)C(=O)CCl [Example 5]
output: 0.56

input: Entry CCCOCN(C(=O)CCl)c1c(CC)cccc1C(F)(F)F [Example 10] has what GR85 Rate?
output: 0.80

***
input: Look up GR85 Rate: Cc1cccc(C(F)(F)F)c1N(COC(C)C)C(=O)CCl [Example 4]
output: 0.47

====

Readings of GR85 Rate for the listed compounds
tested on: alexandergrass; assay: Greenhouse pre-emergence GR15/GR85 selectivity test; assay type: in vivo; conditions: Table XV
Numeric answer only, unit Kg/Ha assumed.

input: Entry under review: CCOCN(C(=O)CCl)c1c(CC)cccc1C(F)(F)F [Example 9] . Reported GR85 Rate?
output: 0.19

input: Need GR85 Rate of Cc1cccc(C(F)(F)F)c1N(COCC(C)C)C(=O)CCl [Example 5] , thanks.
output: 0.7

input: So what does the record say about GR85 Rate for CCCOCN(C(=O)CCl)c1c(C)cccc1C(F)(F)F [Example 3] ?
output: 0.14

input: Any idea what GR85 Rate was measured for CCCOCN(C(=O)CCl)c1c(CC)cccc1C(F)(F)F [Example 10] ?
output: 0.36

# next compound below
input: Please give the measured GR85 Rate for this compound: Cc1cccc(C(F)(F)F)c1N(COC(C)C)C(=O)CCl [Example 4]
output: 0.42
